- assayed-target: human IgG (human)
- method: SPR, synthetic peptide
pKd: recorded values
FYI, pKd means -log10 of a concentration in mol per litre.

Here is how some binders turned out for pKd.
DCTYRNGNLVWCT [GFc-C35-3/15 (T7R)] | 4.08
DCTYSNGNLVWCT [GFc-C35-3/15 (T7S)] | 4.59
DCAYHRGNLVWCT [GFc-C35-3/15 (T7H, N8R, T5A)] | 6.60

Per the record, DCTYTNGELVWCT [GFc-C35-3/15 (N10E)] has pKd of 4.59
